# assay.protocol: MTX level in eye, microcapsules in pars plana (EMIT)
# Type: in vivo, rabbit
# measurement.conditions: rabbit, posterior chamber of eye, right eye, 3 wks, microcapsule, read-out: Drug level, RE PC
parameter.measured: concentration at 504 h

Dear colleague, please send me the reported concentration at 504 h for CN(Cc1cnc2nc(N)nc(N)c2n1)c1ccc(C(=O)N[C@@H](CCC(=O)O)C(=O)O)cc1 [MTX, methotrexate] when you can.
1400 ng/mL

* * *

# assay.protocol: in vivo
# measurement.conditions: rabbit
parameter.measured: concentration at 720 h
Number first, unit second.

Dear colleague, please send me the reported concentration at 720 h for C[C@]12CCC(=O)C=C1CC[C@@H]1[C@@H]2[C@@H](O)C[C@@]2(C)[C@H]1CC[C@]2(O)C(=O)CO [Hydrocortisone, hydrocortisone] when you can.
1300 ng/mL

* * *

# assay.protocol: MTX level in eye, microcapsules in pars plana (EMIT)
# Assay type: in vivo, rabbit
# measurement.conditions: rabbit, posterior chamber of eye, right eye, 1 wk, microcapsule, read-out: Drug level, RE PC
parameter.measured: concentration at 168 h (ng/mL)
Supply the numeric figure in ng/mL, leaving out any unit text.

Dear colleague, please send me the reported concentration at 168 h for CN(Cc1cnc2nc(N)nc(N)c2n1)c1ccc(C(=O)N[C@@H](CCC(=O)O)C(=O)O)cc1 [MTX, methotrexate] when you can.
800

* * *

# assay.protocol: in vivo
# measurement.conditions: rabbit
parameter.measured: concentration at 336 h (ng/mL)
Supply the numeric figure in ng/mL, leaving out any unit text.

Dear colleague, please send me the reported concentration at 336 h for C[C@]12CCC(=O)C=C1CC[C@@H]1[C@@H]2[C@@H](O)C[C@@]2(C)[C@H]1CC[C@]2(O)C(=O)CO [Hydrocortisone, hydrocortisone] when you can.
2000

* * *

# assay.protocol: in vivo
# measurement.conditions: rabbit
parameter.measured: concentration at 1008 h (µg/mL)
Supply the numeric figure in µg/mL, leaving out any unit text.

Dear colleague, please send me the reported concentration at 1008 h for C[C@]12CCC(=O)C=C1CC[C@@H]1[C@@H]2[C@@H](O)C[C@@]2(C)[C@H]1CC[C@]2(O)C(=O)CO [Hydrocortisone, hydrocortisone] when you can.
2

* * *

# assay.protocol: MTX level in eye, plaque in pars plana (EMIT)
# Assay type: in vivo, rabbit
# measurement.conditions: rabbit, posterior chamber of eye, right eye, 2 mos, plaque, read-out: Drug level, RE PC
parameter.measured: concentration at 1440 h

Dear colleague, please send me the reported concentration at 1440 h for CN(Cc1cnc2nc(N)nc(N)c2n1)c1ccc(C(=O)N[C@@H](CCC(=O)O)C(=O)O)cc1 [MTX, methotrexate] when you can.
4000 ng/mL

* * *

# assay.protocol: MTX level in eye, microcapsules in pars plana (EMIT)
# Type: in vivo, rabbit
# measurement.conditions: rabbit, posterior chamber of eye, right eye, 5 wks, microcapsule, read-out: Drug level, RE PC
parameter.measured: concentration at 840 h (µg/mL)
Supply the numeric figure in µg/mL, leaving out any unit text.

Dear colleague, please send me the reported concentration at 840 h for CN(Cc1cnc2nc(N)nc(N)c2n1)c1ccc(C(=O)N[C@@H](CCC(=O)O)C(=O)O)cc1 [MTX, methotrexate] when you can.
1

* * *

# assay.protocol: in vivo
# measurement.conditions: rabbit
parameter.measured: concentration at 504 h
Number first, unit second.

Dear colleague, please send me the reported concentration at 504 h for C[C@]12CCC(=O)C=C1CC[C@@H]1[C@@H]2[C@@H](O)C[C@@]2(C)[C@H]1CC[C@]2(O)C(=O)CO [Hydrocortisone, hydrocortisone] when you can.
2400 ng/mL
